Tgt: Recombinant ALK kinase (Homo sapiens, UniProt Q9UM73)
Construct: His tag (from pBlueBacHis2C vector); made in house; host or cells: insect cells, baculovirus
Sequence (Q9UM73 19-1620): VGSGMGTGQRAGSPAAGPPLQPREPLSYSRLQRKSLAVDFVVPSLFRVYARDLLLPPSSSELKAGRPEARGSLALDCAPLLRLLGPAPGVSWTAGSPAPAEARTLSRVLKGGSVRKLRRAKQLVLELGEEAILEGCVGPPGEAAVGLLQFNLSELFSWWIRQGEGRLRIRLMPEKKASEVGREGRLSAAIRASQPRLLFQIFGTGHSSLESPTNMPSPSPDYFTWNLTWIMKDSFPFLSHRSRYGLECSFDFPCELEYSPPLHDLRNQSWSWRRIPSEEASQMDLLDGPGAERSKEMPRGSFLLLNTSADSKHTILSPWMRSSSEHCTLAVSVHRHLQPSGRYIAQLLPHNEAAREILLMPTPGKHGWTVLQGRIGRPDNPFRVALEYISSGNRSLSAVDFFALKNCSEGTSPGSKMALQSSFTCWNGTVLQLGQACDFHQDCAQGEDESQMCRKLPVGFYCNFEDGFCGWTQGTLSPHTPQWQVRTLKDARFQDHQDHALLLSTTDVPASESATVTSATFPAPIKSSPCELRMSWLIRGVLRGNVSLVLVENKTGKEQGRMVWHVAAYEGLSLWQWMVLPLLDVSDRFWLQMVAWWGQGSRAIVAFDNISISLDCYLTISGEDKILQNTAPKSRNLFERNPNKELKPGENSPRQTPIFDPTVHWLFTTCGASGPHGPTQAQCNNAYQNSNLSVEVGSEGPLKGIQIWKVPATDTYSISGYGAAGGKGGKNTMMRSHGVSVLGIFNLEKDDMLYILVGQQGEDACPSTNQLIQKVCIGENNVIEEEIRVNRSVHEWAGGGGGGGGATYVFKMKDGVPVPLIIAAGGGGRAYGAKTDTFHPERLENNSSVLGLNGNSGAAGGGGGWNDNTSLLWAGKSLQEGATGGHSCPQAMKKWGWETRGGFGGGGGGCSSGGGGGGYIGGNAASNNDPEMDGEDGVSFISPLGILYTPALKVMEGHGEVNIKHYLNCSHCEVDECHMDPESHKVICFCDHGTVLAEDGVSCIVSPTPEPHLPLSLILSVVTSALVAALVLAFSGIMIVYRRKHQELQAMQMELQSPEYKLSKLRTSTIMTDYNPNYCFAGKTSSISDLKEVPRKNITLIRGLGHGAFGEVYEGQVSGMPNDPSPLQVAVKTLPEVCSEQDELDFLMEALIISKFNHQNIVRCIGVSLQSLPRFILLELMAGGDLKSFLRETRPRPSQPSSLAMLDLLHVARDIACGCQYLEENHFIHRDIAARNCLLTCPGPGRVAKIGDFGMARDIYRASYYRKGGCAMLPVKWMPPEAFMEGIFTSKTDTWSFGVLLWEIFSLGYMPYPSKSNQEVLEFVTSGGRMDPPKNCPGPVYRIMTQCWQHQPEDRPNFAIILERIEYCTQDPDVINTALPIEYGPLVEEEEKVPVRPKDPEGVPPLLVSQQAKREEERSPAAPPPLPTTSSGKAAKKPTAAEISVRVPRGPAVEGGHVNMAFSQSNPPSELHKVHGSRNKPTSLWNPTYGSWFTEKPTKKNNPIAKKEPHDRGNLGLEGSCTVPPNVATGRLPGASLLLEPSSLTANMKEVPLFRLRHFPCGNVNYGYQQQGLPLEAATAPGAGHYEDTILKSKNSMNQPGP
Procedure Summary: ELISA-based in vitro kinase assay (ALK kinase inhibitory activity)
Type: biochemical
Applied Conditions: purified rALK, 0.3 mM ATP, ALK peptide substrate, 30° C. 15 minutes; read-out: IC50 values on ALK
pIC50: −log10 of the molar value.
Quantity Measured: pIC50

Check out these entries, answers already filled in.
O=C(Nc1nc(-c2ccc3c(c2)[nH]c2ccccc23)cs1)c1ccc(-c2ccccc2)cc1 [r169] : 4.77
Nc1nc(-c2ccc(-c3cccnc3)cn2)cs1 [r121] : 4.38
O=C(Nc1nc(-c2ccc(-c3cccnc3)cn2)cs1)c1ccco1 [r124] : 4.96

(P) O=C(Nc1nc(-c2ccc(-c3cccnc3)cn2)cs1)c1ccccc1 [r122]
(Q) Nc1nc(-c2ccc3c(c2)[nH]c2ccccc23)cs1 [r156, 4-(9H-Carbazol-2-yl)-thiazol-2-ylamine]
QUERY: Lowest pIC50? choose P or Q Indicate your choice by writing its label.
RESULT: Q

(1) O=c1[nH]c(-c2ccc3c(c2)[nH]c2ccccc23)cs1 [r233]
(2) Clc1ccc(-c2csc(-c3ccc(-c4csnn4)cc3)n2)cc1Cl [r35]
(3) O=C(Nc1nc(-c2ccc3c(c2)[nH]c2ccccc23)cs1)c1ccc(Br)o1 [r170]
QUERY: Please order the records by their reported pIC50, lowest number first. Please respond with the labels ordered as the question requires.
RESULT: 3, 2, 1

----------
Tgt: Recombinant ALK kinase (Homo sapiens)
Construct: His tag (from pBlueBacHis2C vector); made in house; host or cells: insect cells, baculovirus
Procedure Summary: ELISA-based in vitro kinase assay (ALK kinase inhibitory activity)
Type: biochemical
Applied Conditions: purified rALK, 0.3 mM ATP, ALK peptide substrate, 30° C. 15 minutes; read-out: IC50 values on ALK
pIC50: −log10 of the molar value.
Quantity Measured: pIC50

(1) c1ccc(-c2ccc(-c3csc(N4CCOCC4)n3)cc2)cc1 [r85]
(2) O=C(N/N=C/c1c[nH]c2ccccc12)c1cc(-c2ccc(-c3ccccc3)cc2)[nH]n1 [r66]
QUERY: Lowest pIC50? choose 1 or 2 Indicate your choice by writing its label.
RESULT: 1

----------
Tgt: Recombinant ALK kinase (Homo sapiens, UniProt Q9UM73)
Construct: His tag (from pBlueBacHis2C vector); made in house; host or cells: insect cells, baculovirus
Procedure Summary: ELISA-based in vitro kinase assay (ALK kinase inhibitory activity)
Format: biochemical
Applied Conditions: purified rALK, 0.3 mM ATP, ALK peptide substrate, 30° C. 15 minutes; read-out: IC50 values on ALK
Procedure: Method: ELISA-Based In Vitro Kinase Assay Recombinant ALK kinase was expressed in […] insect cells using the pBlueBacHis2C baculovirus vector system and purified using an anion exchange Fast Flow Q-sepharose column (Amersham-Pharmacia Biotech) followed by HiTrap™-nickel affinity column (Amersham-Pharmacia Biotech). […] Phosphorylated peptide was detected using 100 μl/well of a mouse monoclonal anti-phosphotyrosine antibody (clone 4G10 UpstateBiotech Ltd) diluted 1:2000 in PBS+4% BSA. […]
Quantity Measured: IC50 (µM)

Check out these entries, answers already filled in.
Cc1ccc(-c2csc(-c3ccc(-c4csnn4)cc3)n2)cc1 : 5.5
O=C(Nc1ncc(-c2ccc(-c3cccnc3)cc2Cl)s1)c1ccc(Br)o1 : 6.7
COc1ncc(-c2ccc(-c3cccnc3)cc2Cl)s1 : 3.7
Nc1nc(-c2ccc3c(c2)Cc2ccccc2-3)cs1 : 11
O=[N+]([O-])c1ccc(-c2nc(-c3ccc(-c4csnn4)cc3)no2)cc1 : 8.8
Cc1nc(-c2ccc(-c3csc(-c4cnccc4C(F)(F)F)n3)cc2)no1 : 46.5
Fc1ccc(-c2csc(-c3ccc(-c4csnn4)cc3)n2)cc1F : 3.1
Brc1ccccc1-c1ccc(-c2nccs2)nc1 : 27

(a) O=C(c1ccc(Br)o1)N(C(=O)c1ccc(Br)o1)c1ccc(-c2ccc(-c3ncco3)nc2)cn1
(b) c1ccc2c(-c3ncc(-c4ccc(-c5cnc(-c6cccc7ccccc67)o5)cc4)o3)cccc2c1
QUERY: Between these two entries, a and b , state which has the higher IC50. Indicate your choice by writing its label.
RESULT: a
(a: 17 µM, b: 1.2 µM)

----------
Tgt: BaF3 cells transformed with NPM/ALK (Homo sapiens, UniProt Q9UM73)
Construct: fused on or other part: P06748 (Nucleophosmin)
Sequence (Q9UM73 whole entry, change not shown, the tested form may be a part): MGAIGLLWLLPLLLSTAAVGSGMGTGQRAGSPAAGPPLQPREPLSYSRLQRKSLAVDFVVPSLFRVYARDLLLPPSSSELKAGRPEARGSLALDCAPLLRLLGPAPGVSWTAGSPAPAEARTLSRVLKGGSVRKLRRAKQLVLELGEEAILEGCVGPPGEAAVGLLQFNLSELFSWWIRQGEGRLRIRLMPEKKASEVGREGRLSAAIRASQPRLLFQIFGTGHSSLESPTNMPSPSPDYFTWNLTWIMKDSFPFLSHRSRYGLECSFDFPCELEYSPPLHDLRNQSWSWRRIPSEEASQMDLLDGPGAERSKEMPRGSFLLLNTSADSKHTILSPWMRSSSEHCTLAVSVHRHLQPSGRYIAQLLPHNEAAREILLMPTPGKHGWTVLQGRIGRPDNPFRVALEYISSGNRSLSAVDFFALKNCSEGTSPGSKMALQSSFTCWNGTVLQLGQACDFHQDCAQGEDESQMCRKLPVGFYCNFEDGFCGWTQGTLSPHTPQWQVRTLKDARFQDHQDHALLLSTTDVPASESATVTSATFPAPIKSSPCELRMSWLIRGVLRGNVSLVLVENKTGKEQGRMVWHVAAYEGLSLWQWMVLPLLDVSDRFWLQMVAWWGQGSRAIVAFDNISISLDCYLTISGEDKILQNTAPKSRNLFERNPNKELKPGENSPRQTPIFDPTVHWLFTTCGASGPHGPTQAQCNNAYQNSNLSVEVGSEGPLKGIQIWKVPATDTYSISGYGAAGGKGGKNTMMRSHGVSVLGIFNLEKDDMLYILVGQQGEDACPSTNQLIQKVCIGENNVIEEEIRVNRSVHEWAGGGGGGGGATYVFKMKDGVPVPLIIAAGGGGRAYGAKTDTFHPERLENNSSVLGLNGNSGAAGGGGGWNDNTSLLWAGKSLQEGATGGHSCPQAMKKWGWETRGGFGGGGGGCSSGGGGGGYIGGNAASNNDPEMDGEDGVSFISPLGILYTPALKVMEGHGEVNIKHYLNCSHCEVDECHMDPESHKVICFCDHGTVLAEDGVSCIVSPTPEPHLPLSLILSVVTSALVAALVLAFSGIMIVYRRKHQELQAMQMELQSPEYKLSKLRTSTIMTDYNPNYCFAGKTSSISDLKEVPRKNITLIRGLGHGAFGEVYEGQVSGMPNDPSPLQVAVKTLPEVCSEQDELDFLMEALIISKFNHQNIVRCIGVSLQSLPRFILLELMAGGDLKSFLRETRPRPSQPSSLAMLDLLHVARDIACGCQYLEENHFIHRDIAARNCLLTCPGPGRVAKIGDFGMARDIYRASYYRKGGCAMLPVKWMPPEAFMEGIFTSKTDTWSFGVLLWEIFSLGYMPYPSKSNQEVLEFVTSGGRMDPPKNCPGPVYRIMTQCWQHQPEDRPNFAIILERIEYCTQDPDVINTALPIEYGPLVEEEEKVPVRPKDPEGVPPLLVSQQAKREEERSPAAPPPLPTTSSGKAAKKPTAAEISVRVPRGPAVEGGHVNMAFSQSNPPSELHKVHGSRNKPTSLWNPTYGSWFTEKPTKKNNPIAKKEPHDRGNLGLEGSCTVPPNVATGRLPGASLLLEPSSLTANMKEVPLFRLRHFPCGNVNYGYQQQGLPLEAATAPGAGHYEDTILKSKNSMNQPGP
Procedure Summary: Tritiated thymidine uptake cell proliferation assay
Format: cell-based
Applied Conditions: read-out: IC50 values on the proliferation of BaF3 cells transformed with NPM/ALK; 72 h incubation, 3[H]-thymidine uptake
Quantity Measured: GI50 (µM)

Check out these entries, answers already filled in.
CC(C)(C)c1csc(-c2ccc(-c3csnn3)cc2)n1 [r79] : 33
O=C1Nc2ccc(Br)cc2/C1=N/Nc1nc(-c2ccc(-c3ccccc3)cc2)cs1 [r49] : 12

(P) CN1CCN(Cc2ccc(C(=O)Nc3nc(-c4ccc5c(c4)Cc4ccccc4-5)cs3)cc2)CC1 [r89]
(Q) O=C(N/N=C/c1c[nH]c2ccccc12)c1cc(-c2ccc(-c3ccccc3)cc2)[nH]n1 [r66]
QUERY: Lowest GI50? choose P or Q Indicate your choice by writing its label.
RESULT: Q

(1) Cc1csc(-c2ccc(-c3csnn3)cc2)n1 [r78]
(2) CCOC(=O)c1csc(-c2ccc(-c3csnn3)cc2)n1 [r80]
QUERY: Lowest GI50? choose 1 or 2 Indicate your choice by writing its label.
RESULT: 1
(1: 7.6 µM, 2: 31 µM)

----------
Tgt: Recombinant ALK kinase (Homo sapiens, UniProt Q9UM73)
Construct: His tag (from pBlueBacHis2C vector); made in house; host or cells: insect cells, baculovirus
Procedure Summary: ELISA-based in vitro kinase assay (ALK kinase inhibitory activity)
Format: biochemical
Applied Conditions: purified rALK, 0.3 mM ATP, ALK peptide substrate, 30° C. 15 minutes; read-out: IC50 values on ALK
Quantity Measured: IC50 (µM)

Check out these entries, answers already filled in.
CN1CCN(Cc2ccc(C(=O)Nc3ncc(-c4ccc(-c5cccnc5)cc4Cl)s3)cc2)CC1 : 4.6
CN1CCN(Cc2ccc(C(=O)Nc3nc(-c4ccc5c(c4)Cc4ccccc4-5)cs3)cc2)CC1 : 1.3
Cc1ccc(-c2csc(-c3ccc(-c4csnn4)cc3)n2)c(C)c1 : 9.3
c1ccc(-c2ccc(-c3csc(-c4ccncc4)n3)cc2)cc1 : 11.7

(A) CC(C)(C)c1csc(-c2ccc(-c3csnn3)cc2)n1
(B) c1cc(-c2ccc(-c3ccoc3)cc2)co1
QUERY: Between these two entries, A and B , state which has the higher IC50. Indicate your choice by writing its label.
RESULT: A

----------
Tgt: Recombinant ALK kinase (Homo sapiens, UniProt Q9UM73)
Construct: His tag (from pBlueBacHis2C vector); made in house; host or cells: insect cells, baculovirus
Procedure Summary: ELISA-based in vitro kinase assay (ALK kinase inhibitory activity)
Type: biochemical
Applied Conditions: purified rALK, 0.3 mM ATP, ALK peptide substrate, 30° C. 15 minutes; read-out: IC50 values on ALK
Protocol: Method: ELISA-Based In Vitro Kinase Assay Recombinant ALK kinase was expressed in […] insect cells using the pBlueBacHis2C baculovirus vector system and purified using an anion exchange Fast Flow Q-sepharose column (Amersham-Pharmacia Biotech) followed by HiTrap™-nickel affinity column (Amersham-Pharmacia Biotech). […] Phosphorylated peptide was detected using 100 μl/well of a mouse monoclonal anti-phosphotyrosine antibody (clone 4G10 UpstateBiotech Ltd) diluted 1:2000 in PBS+4% BSA. […]
pIC50: −log10 of the molar value.
Quantity Measured: pIC50

Check out these entries, answers already filled in.
Nc1ccc(-c2ccc(-c3cncs3)c(Cl)c2)cn1 : 4.68
O=C(Nc1nc(-c2ccc3c(c2)[nH]c2ccccc23)cs1)c1ccccc1 : 5.00
CCOC(=O)c1csc(-c2ccc(-c3csnn3)cc2)n1 : 4.32

(a) N#C/C(=C\c1cccs1)c1nc(-c2ccc(-c3ccccc3)cc2)cs1
(b) CN1CCN(C(=O)c2ccc(-c3ccc(-c4ccc(C(=O)N5CCN(C)CC5)o4)cc3)o2)CC1
QUERY: Between these two entries, a and b , state which has the higher pIC50. Indicate your choice by writing its label.
RESULT: a
(a: 5.33, b: 4.51)

(P) Cc1csc(-c2ccc(-c3csnn3)cc2)n1
(Q) c1ccc(-c2ccc(-c3cncs3)nc2)nc1
(R) O=S(=O)(Cc1ccco1)Cc1nc(-c2ccc(-c3ccccc3)cc2)cs1
(S) O=C(O)c1ccc(-c2ccc(-c3ccc(C(=O)O)o3)cc2)o1
(T) Clc1cc(-c2cccnc2)ccc1-c1cncs1
QUERY: # desc sort on pIC50 across 5 compounds Please respond with the labels ordered as the question requires.
RESULT: R, T, S, Q, P
(R: 5.80, T: 4.92, S: 4.70, Q: 4.24, P: 3.99)

(A) O=C1Nc2ccc(Br)cc2/C1=N/Nc1nc(-c2ccc(-c3ccccc3)cc2)cs1
(B) O=C(Nc1ccc(-c2ccc(-c3ncco3)nc2)cn1)c1ccc(Br)o1
QUERY: Between these two entries, A and B , state which has the higher pIC50. Indicate your choice by writing its label.
RESULT: A
(A: 5.82, B: 5.32)
